biological target: Purine nucleoside phosphorylase (Homo sapiens, UniProt P00491); assay: In vitro inhibition of purine nucleoside phosphorylase isolated from human erythrocytes.
Sequence (P00491 whole entry): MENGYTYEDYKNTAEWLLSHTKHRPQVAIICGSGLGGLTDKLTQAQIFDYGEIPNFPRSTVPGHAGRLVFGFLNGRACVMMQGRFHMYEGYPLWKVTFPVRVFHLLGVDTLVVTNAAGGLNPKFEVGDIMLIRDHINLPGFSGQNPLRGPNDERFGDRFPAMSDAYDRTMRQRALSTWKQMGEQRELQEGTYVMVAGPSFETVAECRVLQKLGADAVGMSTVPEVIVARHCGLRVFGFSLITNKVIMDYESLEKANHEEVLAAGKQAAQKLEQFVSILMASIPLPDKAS
pKi: −log10 of the molar value.
RECORDED METRIC: pKi

>>> quantitative_result("Nc1nc(O)c2nnn(CCCCP(=O)(O)O)c2n1")
5.14
>>> quantitative_result("Nc1nc(O)c2nnn(CCCCCCP(=O)(O)O)c2n1")
6.44
>>> quantitative_result("Nc1nc(O)c2ncn(CCCCCCCP(=O)(O)O)c2n1")
6.28

(a) Nc1nc2c(ncn2CCCCCCCCCCP(=O)(O)O)c(=O)[nH]1
(b) Nc1nc2c(cnn2COCCCCCCP(=O)(O)O)c(=O)[nH]1
Compare reported pKi values for a and b . Which is lower? API: response body contains the label of the selected item.
a

(1) Nc1nc(O)c2nnn(COCCCCCCP(=O)(O)O)c2n1
(2) Nc1nc2c(cnn2CCCCCCCP(=O)(O)O)c(=O)[nH]1
Sort 1 and 2 by pKi descending and give the first. API: response body contains the label of the selected item.
1
(1: 6.72, 2: 6.24)

(I) Nc1nc2c(ncn2COCCCCCCP(=O)(O)O)c(=O)[nH]1
(II) Nc1nc(O)c2ncn(CCCCCCCCP(=O)(O)O)c2n1
(III) Nc1nc2c(cnn2CCCCCCCCP(=O)(O)O)c(=O)[nH]1
(IV) Nc1nc(O)c2ncn(COCCCCP(=O)(O)O)c2n1
Please list the entries, largest pKi first. Answer by naming the labels in the order asked.
IV, I, II, III
(IV: 7.25, I: 6.66, II: 6.41, III: 5.96)

(a) Nc1nc2c(ncn2COCCCCOP(=O)(O)O)c(=O)[nH]1
(b) Nc1nc2c(ncn2COCCCCCP(=O)(O)O)c(=O)[nH]1
(c) Nc1nc2c(nnn2COCCCCCP(=O)(O)O)c(=O)[nH]1
Would you mind ranking these compounds by ascending pKi? Answer by naming the labels in the order asked.
b, c, a
